From: paper PMC9311798

Target: mushroom tyrosinase (Agaricus bisporus, UniProt C7FF04)
Construct: purchased Sigma-Aldrich
Sequence (C7FF04 1-392 limits assumed): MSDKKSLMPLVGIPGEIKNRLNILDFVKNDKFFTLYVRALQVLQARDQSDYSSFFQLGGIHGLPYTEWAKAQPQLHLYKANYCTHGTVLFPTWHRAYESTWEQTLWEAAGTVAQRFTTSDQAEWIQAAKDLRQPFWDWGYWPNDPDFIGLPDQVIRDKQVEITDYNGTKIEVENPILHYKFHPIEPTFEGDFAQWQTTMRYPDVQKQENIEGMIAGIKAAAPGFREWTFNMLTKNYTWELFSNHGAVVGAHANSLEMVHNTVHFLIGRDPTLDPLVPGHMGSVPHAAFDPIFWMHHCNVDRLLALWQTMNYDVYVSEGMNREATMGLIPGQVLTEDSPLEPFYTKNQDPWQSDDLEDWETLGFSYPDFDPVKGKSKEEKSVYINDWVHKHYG
Assay: Mushroom tyrosinase inhibition assay
Format: biochemical
Details: L-DOPA as substrate
MEASURED QUANTITY: IC50 (µM)
// return numeric value only (unit: µM, not printed)

Measured IC50 of Oc1ccc(-c2nc3cc(C(F)(F)F)ccc3s2)c(O)c1 [Compound 1b] : 1.7

###

Below, each entry is listed alongside its reported melting point.

Consider the worked cases shown below.
COc1ccc(-c2nc3cc(C(F)(F)F)ccc3s2)cc1: 128.8 to 130.1 °C
Oc1ccc(-c2nc3cc(C(F)(F)F)ccc3s2)cc1: 187.2 to 188.9 °C
COc1ccc(-c2nc3cc(C(F)(F)F)ccc3s2)c(OC)c1: 140.4 to 141.6 °C

For the next question, use this compound.
Measured melting point of COc1ccc(-c2nc3cc(C(F)(F)F)ccc3s2)cc1OC : 120.4 to 121.6 °C
